assay: plasmodial surface anion channel blockers, osmotic lysis – cell-based, P. falciparum Indochina, OD700, 2 h, primary screen (AID 1155);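 note: lysis reports solute entry through the parasite surface anion channel PSAC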; details: P. falciparum Indochina infected erythrocytes, higher = more signal, called active from +8 up or from −8 down
quantity_name: z-score
Output spec: single numeric token, no unit.

Record excerpt, results attached:
| molecule | assay_value |
| --- | --- |
| O=C(Cc1ccccc1)[C@H]1C2C=CCCC(c3ccccc3)=C2CN1Cc1ccccc1 (stereo partly specified) | 0.186 |
| C=C(COC)/C(=C/C[C@H](OC(=O)c1ccncc1)c1ccc(CO)o1)c1cnc2ccccc2c1 | 0.807 |
| Cc1ccc(S[C@]2(C(=O)NCCN3CCOCC3)CC(=O)N(Cc3ccccc3Cl)[C@@H]2c2ccc(CO)cc2I)cc1 | 0.989 |
| C=C[C@H]1C(C(=O)OCC)=CC[C@@H](c2ccccc2)N1S(=O)(=O)c1ccc(C)cc1 | 1.56 |
| O=C1OCCC=C[C@H]2OC34C=CCN(c5ccc6ccccc6c5)C(=O)[C@H]3N(CCCO)C(=O)[C@@H]4C12 (stereo partly specified) | -0.568 |
| CCCCCN1CC=CC23O[C@@H]4/C=C\CCCOC(=O)C4[C@H]2C(=O)N(C(C)CO)[C@@H]3C1=O (stereo partly specified) | 0.175 |
| CC1CC/C=C\[C@H]2OC34C=CCN(Cc5ccccc5)C(=O)[C@H]3N(C(CO)C(C)C)C(=O)[C@@H]4C2C(=O)O1 (stereo partly specified) | 0.667 |
| CC(c1ccccc1)C(O)C1C=CC2C(=O)N(C)C(=O)C2N1Nc1ccccc1 (stereo unspecified) | 0.782 |

Note to self: z-score recorded for `COC(=O)[C@@]1(Cc2ccccc2)[C@H]2c3cc(C(=O)N4CCCC4)n(CCc4ccccn4)c3C[C@H]2CN1C(=O)c1ccccc1` was 0.0978

Note to self: z-score recorded for `COCCOC(=O)N1C(=O)[C@@]2(c3cc(C#CCC(C(=O)OC)C(=O)OC)ccc31)[C@H](c1ccc(OCCO)cc1)N1[C@H](c3ccccc3)[C@H](c3ccccc3)OC(=O)[C@H]1[C@@H]2C(=O)N1CCc2cc(OC)c(OC)cc2C1` was 2.56

Note to self: z-score recorded for N#Cc1ccc(NN2C(C(O)c3ccc(Br)cc3)C=CC3C(=O)N(c4ccccc4)C(=O)C32)cc1 (stereo unspecified) was 2.9

====

We begin with a simple list: items and their reported z-score.
test: budding yeast growth changes without added modifier – OD600, strain BY4716, 24 h, basal condition, primary screen (AID 1173); conditions: S. cerevisiae BY4716 growth, OD600, 24 h; higher = more signal, called active from +8 up or from −8 down
Output spec: single numeric token, no unit.

Record excerpt, results attached:
| molecule | assay_value |
| --- | --- |
| C[N+](C)(C)CCCC[C@@H]1NC(=O)[C@@H]2C[C@H](C(=O)NCCCCCCN)[C@H](c3cccc(OCCO)c3)N2C1=O | -0.22 |
| COc1ccc([Si](C)(C)[C@H]2[C@H](CC(=O)N(CCO)Cc3ccccc3)O[C@@]3(C(=O)N(C)c4c(Br)cc(C)cc43)[C@@H]2C)cc1 | -2.5 |
| COC(=O)[C@]1(CCS(=O)(=O)c2ccccc2)N=C(c2ccc(OCCCO)cc2)O[C@@H]1c1ccccc1N=[N+]=[N-] | 0.141 |

# next molecule below
Note to self: z-score recorded for CS(=O)(=O)CCOC(=O)C1=CC(c2ccc(CO)cc2)=CC(C2CC2)N(Cc2sc3ccccc3c2Cl)C=C1C(=O)OCCS(C)(=O)=O (centres undefined) was -5.45
